- System: angiogenesis induced by bFGF in angiochambers
- Test summary: AngioChamber assay: bFGF-induced fibrous capsule formation and haemoglobin (Drabkin) blood content
- Assay type: in vivo, FvB mice
- Experimental conditions: i.p. once daily for 5 days, dioscin 10, deltonin 10, trillin 60, prosapogenin A 20, sorafenib 60 mg/kg, wet weight on Day 6
- Source text: The AngioChamber™ assay utilises the normal physiological process of wound healing, which promotes the formation of a fibrous capsule around an implanted chamber (Wood et al, (2000) Cancer Research, 60(8):2178-89). […] Treatment was started when all the animals had recovered fully from anaesthesia, and continued for 5 days. On Day 6, the vascularised fibrous chambers were removed and the wet weight recorded for each implant. […]
// label = y if Average chamber weight is not less than 0.3 g, otherwise n

C[C@@H]1CC[C@@]2(OC1)O[C@H]1C[C@H]3[C@@H]4CC=C5C[C@@H](O[C@@H]6O[C@H](CO)[C@@H](O)[C@H](O)[C@H]6O)CC[C@]5(C)[C@H]4CC[C@]3(C)[C@H]1[C@@H]2C    y
C[C@@H]1CC[C@@]2(OC1)O[C@H]1C[C@H]3[C@@H]4CC=C5C[C@@H](O[C@@H]6O[C@H](CO)[C@@H](O[C@@H]7O[C@@H](C)[C@H](O)[C@@H](O)[C@H]7O)[C@H](O)[C@H]6O[C@@H]6O[C@@H](C)[C@H](O)[C@@H](O)[C@H]6O)CC[C@]5(C)[C@H]4CC[C@]3(C)[C@H]1[C@@H]2C [Dioscin, diosgenin Rha2, [Rha4], Glc]    n
C[C@@H]1CC[C@@]2(OC1)O[C@H]1C[C@H]3[C@@H]4CC=C5C[C@@H](O[C@@H]6O[C@H](CO)[C@@H](O[C@@H]7O[C@H](CO)[C@@H](O)[C@H](O)[C@H]7O)[C@H](O)[C@H]6O[C@@H]6O[C@@H](C)[C@H](O)[C@@H](O)[C@H]6O)CC[C@]5(C)[C@H]4CC[C@]3(C)[C@H]1[C@@H]2C [Deltonin, diosgenin Rha2, [Glc4], Glc]    n
C[C@@H]1CC[C@@]2(OC1)O[C@H]1C[C@H]3[C@@H]4CC=C5C[C@@H](O[C@@H]6O[C@H](CO)[C@@H](O)[C@H](O)[C@H]6O[C@@H]6O[C@@H](C)[C@H](O)[C@@H](O)[C@H]6O)CC[C@]5(C)[C@H]4CC[C@]3(C)[C@H]1[C@@H]2C    y
CNC(=O)c1cc(Oc2ccc(NC(=O)Nc3ccc(Cl)c(C(F)(F)F)c3)cc2)ccn1 [Sorafenib, reference compound]    y
